system-under-test: T1, RARA/RXRA heterodimer (ligand-binding domains) (UniProt P10276 175-421; P19793 224-462)
T1 chain 1: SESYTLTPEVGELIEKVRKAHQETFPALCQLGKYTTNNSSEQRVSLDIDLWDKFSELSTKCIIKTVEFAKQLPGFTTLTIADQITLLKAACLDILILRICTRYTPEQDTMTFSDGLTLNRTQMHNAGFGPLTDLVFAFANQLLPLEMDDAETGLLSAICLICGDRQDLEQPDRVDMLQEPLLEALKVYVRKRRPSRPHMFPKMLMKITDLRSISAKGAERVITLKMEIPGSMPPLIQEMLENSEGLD
T1 chain 2: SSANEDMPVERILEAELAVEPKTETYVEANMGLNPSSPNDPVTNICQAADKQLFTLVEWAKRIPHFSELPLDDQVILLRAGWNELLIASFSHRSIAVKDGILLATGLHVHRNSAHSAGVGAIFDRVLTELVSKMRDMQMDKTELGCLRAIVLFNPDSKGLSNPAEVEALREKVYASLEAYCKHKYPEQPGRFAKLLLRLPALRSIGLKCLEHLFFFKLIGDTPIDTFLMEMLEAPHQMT
test: FP; + DMSO (no ATRA)
pKd: −log10 of the molar value. No end group written: not given here. fluorescein = fluorescein (FAM) fluorescent label
parameter: pKd

[
  {
    "binder": "fluorescein-ARHKILHRLLQEGS [Fluorescein-labelled NCOA1 peptide residues 687–698 (Flc-ARHKILHRLLQEGS)]",
    "number": 5.26
  }
]
